Catalogue of compounds with associated IC50
test system: HCT116 cells, U2OS cells, MDA-231/GFP cells, and PANC-1 cells; experiment: Cytotoxicity across the four cancer cell lines (SAR summary); type: cell-based; details: range over four cell lines

Recorded IC50, per entry:
Fill in the blank: the reported IC50 of Oc1ccc(/C=C/c2ccc(O)cc2)cc1 [DHS, 4,4′-trans-dihydroxystilbene] is ____.
2.3 to 22 µM

Fill in the blank: the reported IC50 of Oc1ccc(/C=C/c2ccccc2)cc1 [#3, (E)-4-styrylphenol] is ____.
23.6 to 109 µM

Fill in the blank: the reported IC50 of Oc1ccc(/C=C/c2cc(O)cc(O)c2)cc1 [Resveratrol, 3,5,4′-trihydroxy-trans-stilbene, reference compound] is ____.
24.5 to 82 µM

Continuing:
Fill in the blank: the reported IC50 of Oc1ccc(/C=C/c2ccccc2)cc1O [#4, (E)-4-styrylbenzene-1,2-diol] is ____.
13.7 to 57.1 µM
